Provenance of the data: ChEMBL document CHEMBL5727878

# system-name: Apelin receptor (Homo sapiens)
# Sequence (P35414 whole entry): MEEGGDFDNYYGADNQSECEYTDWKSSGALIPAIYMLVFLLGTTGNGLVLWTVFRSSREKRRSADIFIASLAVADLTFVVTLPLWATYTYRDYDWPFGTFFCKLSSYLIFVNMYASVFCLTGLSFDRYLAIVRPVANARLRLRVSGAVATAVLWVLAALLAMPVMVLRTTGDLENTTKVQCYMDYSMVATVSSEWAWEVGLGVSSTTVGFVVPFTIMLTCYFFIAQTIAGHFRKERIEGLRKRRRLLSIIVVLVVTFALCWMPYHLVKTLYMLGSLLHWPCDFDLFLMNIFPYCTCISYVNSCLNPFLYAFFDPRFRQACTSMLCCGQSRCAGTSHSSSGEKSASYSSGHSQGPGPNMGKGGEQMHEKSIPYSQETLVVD
# experimental-protocol: GTPγS Binding: The human APJ receptor was cloned by polymerase chain reaction and the gene encoding the receptor was subcloned in pFLAG-CMV-3 expression vector (Sigma, Saint Louis, Mo. USA) in-house at Amgen. A GTPγS binding assay was performed on membranes prepared from CHO cells stably expressing human APJ receptor. The optimum experimental conditions for the concentrations of GDP, MgCl2, and NaCl in the assay buffer were initially determined. The assay was performed in assay buffer [20 mM HEPES, pH 7.5, 5 mM MgCl2, and 0.1% (w/v) BSA with 200 mM NaCl, 3 μM GDP] and membranes expressing human APJ receptor/well along with WGA PS beads. The reaction was initiated by addition of 0.2 nM [35S]GTPγS in the absence or presence of various ligands and incubated at RT for 90 min. Nonspecific binding was determined in the presence of 100 μM GTPγS and was always less than 0.2% of total binding.
pEC50: −log10 of the molar value.
Quick rule: pEC50 of at least 9 means 1.0, below that means 0.0.

Query: Please indicate if the recorded pEC50 for COc1cccc(OC)c1-n1c(NS(=O)(=O)[C@H]2CCCC[C@H]2c2ncc(F)cn2)nnc1-c1ccco1 (single isomer, unassigned) meets or exceeds 9.
Response: 0.0

Query: Please indicate if the recorded pEC50 for COc1cccc(OC)c1-n1c(NS(=O)(=O)[C@H]2C[C@@H](O)CN(c3cc(C#N)ccn3)C2)nnc1-c1ccc(C)o1 (single isomer, unassigned) meets or exceeds 9.
Response: 1.0

Query: Please indicate if the recorded pEC50 for COc1cccc(OC)c1-n1c(NS(=O)(=O)[C@H]2CCCN(c3ncc(F)cn3)C2)nnc1-c1ccc(C)o1 (single isomer, unassigned) meets or exceeds 9.
Response: 0.0

Query: Please indicate if the recorded pEC50 for CCc1cnc([C@@H](C)[C@H](C)S(=O)(=O)Nc2nnc(-c3ccc(C)o3)n2-c2c(OC)cccc2OC)nc1 (single isomer, unassigned) meets or exceeds 9.
Response: 0.0

Query: Please indicate if the recorded pEC50 for COc1cccc(OC)c1-n1c(NS(=O)(=O)C[C@H](O)c2ccc(F)cn2)nnc1-c1ccc(C)o1 (single isomer, unassigned) meets or exceeds 9.
Response: 1.0

Query: Please indicate if the recorded pEC50 for COc1cccc(OC)c1-n1c(NS(=O)(=O)[C@@H](C)Cc2ncc(Br)cn2)nnc1-c1ccco1 (single isomer, unassigned) meets or exceeds 9.
Response: 1.0

Query: Please indicate if the recorded pEC50 for COC[C@H]1CCCC(=O)N1C[C@@H](C)S(=O)(=O)Nc1nnc(-c2ccc(C)o2)n1-c1c(OC)cccc1OC (single isomer, unassigned) meets or exceeds 9.
Response: 1.0

Query: Please indicate if the recorded pEC50 for CCc1ccc(-c2nnc(NS(=O)(=O)[C@@H](C)Cc3ncc(F)cn3)n2-c2c(OC)cccc2OC)o1 (mixture of isomers) meets or exceeds 9.
Response: 1.0

###

Hi there, I'd appreciate the recorded EC50 for every entry that follows.
# system-name: Apelin receptor (Homo sapiens)
# experimental-protocol: GTPγS Binding: The human APJ receptor was cloned by polymerase chain reaction and the gene encoding the receptor was subcloned in pFLAG-CMV-3 expression vector (Sigma, Saint Louis, Mo. USA) in-house at Amgen. A GTPγS binding assay was performed on membranes prepared from CHO cells stably expressing human APJ receptor. The optimum experimental conditions for the concentrations of GDP, MgCl2, and NaCl in the assay buffer were initially determined. The assay was performed in assay buffer [20 mM HEPES, pH 7.5, 5 mM MgCl2, and 0.1% (w/v) BSA with 200 mM NaCl, 3 μM GDP] and membranes expressing human APJ receptor/well along with WGA PS beads. The reaction was initiated by addition of 0.2 nM [35S]GTPγS in the absence or presence of various ligands and incubated at RT for 90 min. Nonspecific binding was determined in the presence of 100 μM GTPγS and was always less than 0.2% of total binding.

Short answer for COc1cccc(OC)c1-n1c(NS(=O)(=O)[C@@H]2C[C@@H](C(=O)N3CCC3)CN(c3ncc(F)cn3)C2)nnc1-c1ccc(C)o1 (mixture of isomers) : EC50 was 0.32 nM

Short answer for COc1cccc(OC)c1-n1c(NS(=O)(=O)[C@@H](C)[C@@H](O)c2coc(C)n2)nnc1-c1ccc(C)o1 (single isomer, unassigned) : EC50 was 8.3 nM

Short answer for COc1cnc([C@@H](O)[C@H](C)S(=O)(=O)Nc2nnc(-c3ccc(C)o3)n2-c2c(OC)cccc2OC)cn1 (mixture of isomers) : EC50 was 0.25 nM

Short answer for COc1cccc(OC)c1-n1c(NS(=O)(=O)CCN2C(=O)CCC[C@@H]2C)nnc1-c1ccco1 (single isomer, unassigned) : EC50 was 1 nM

Short answer for COc1cccc(OC)c1-n1c(NS(=O)(=O)[C@H]2C[C@@H](C(=O)N3CCC3)CN(c3ncc(F)cn3)C2)nnc1-c1ccc(C)o1 (mixture of isomers) : EC50 was 0.35 nM

Short answer for COc1cccc(OC)c1-n1c(NS(=O)(=O)[C@@H](C)[C@H](C)c2cnc(C)c[n+]2[O-])nnc1-c1ccc(C)o1 (mixture of isomers) : EC50 was 0.14 nM

Short answer for COc1cccc(OC)c1-n1c(NS(=O)(=O)[C@@H](C)[C@@H](O)c2ncn3ccccc23)nnc1-c1ccc(C)o1 (single isomer, unassigned) : EC50 was 1.4 nM

Short answer for COc1cccc(OC)c1-n1c(NS(=O)(=O)[C@H]2CCC[C@@H]2c2ncc(F)cn2)nnc1-c1ccc(C)o1 (mixture of isomers) : EC50 was 2 nM

Short answer for COc1cccc(OC)c1-n1c(NS(=O)(=O)[C@@H](C)[C@H](O)c2cc3ccccn3n2)nnc1-c1ccc(C)o1 (single isomer, unassigned) : EC50 was 3.7 nM

Short answer for COc1cccc(OC)c1-n1c(NS(=O)(=O)C[C@H](O)c2ccc(F)cn2)nnc1-c1ccc(C)o1 (mixture of isomers) : EC50 was 0.17 nM

Short answer for COc1cccc(OC)c1-n1c(NS(=O)(=O)[C@@H](C)[C@H](O)c2cc3n(n2)CCCO3)nnc1-c1ccc(C)o1 (single isomer, unassigned) : EC50 was 1.2 nM

Short answer for COc1cccc(OC)c1-n1c(NS(=O)(=O)[C@@H](C)[C@@H](OCCO)c2ncc(C)cn2)nnc1-c1ccc(C)o1 (single isomer, unassigned) : EC50 was 0.15 nM

Short answer for COc1cccc(OC)c1-n1c(NS(=O)(=O)[C@@H](C)Cc2ncc(F)c3c2ncn3C)nnc1-c1ccco1 (single isomer, unassigned) : EC50 was 0.98 nM
